experiment: Cmax in C57BL/6 mouse at 50 mg/kg, po after 1 to 24 hrs by LC-MS/MS method; format: ADME, organism-based; design: dose 50 mg/kg, route oral; conditions: in vivo
Listing of recorded Cmax by entry.

COMPOUND: Cc1c(CN2CCOCC2)cc(-c2ccc(C(C)C)cc2)n1C1CCCOC1 (configuration not stated)
Cmax (ng/mL): 548

COMPOUND: Cc1c(CN2CCOCC2)cc(-c2ccc(C(C)C)cc2)n1C(C)C
Cmax (ng/mL): 177

* * *

assay: in vitro; conditions: human, HepG2 cells
Description: Selectivity index, ratio of TC50 for human HepG2 cells to MIC for Mycobacterium tuberculosis
Listing of recorded selectivity ratio by entry.

COMPOUND: Cc1c(CN2CCOCC2)cc(-c2ccc(C(C)C)cc2)n1C1CCCOC1 (stereo not given)
selectivity ratio: 333
//
COMPOUND: Cc1c(CN2CCOCC2)cc(-c2ccc(C(C)C)cc2)n1C1CC1
selectivity ratio: 67
//
COMPOUND: Cc1c(CN2CCOCC2)cc(-c2ccc(C(C)C)cc2)n1-c1ccc(N(C)C)cc1
selectivity ratio: 13
//
COMPOUND: COCCn1c(-c2ccc(C(C)C)cc2)cc(CN2CCOCC2)c1C
selectivity ratio: 39
//
COMPOUND: Cc1c(CN2CCOCC2)cc(-c2ccc(C(F)(F)F)cc2)n1C1CCC1
selectivity ratio: 67
